Target: GCN2_T
Test: two-hybrid library CCmax;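 further: natural log of median RNA to DNA barcode read ratio; higher means stronger binding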
REPORTED METRIC: interaction score

# annotated cases, reported interaction score shown
1) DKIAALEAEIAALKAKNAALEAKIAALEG [4H2165-AA] = -1.41
2) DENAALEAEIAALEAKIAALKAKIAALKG [4H1070-AA] = -0.746

P: DEIAALEAKNAALKAEIAALEAENAALKG [4H452-AA]
Q: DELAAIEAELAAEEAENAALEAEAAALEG [AP1-AA]
Sorting ascending by interaction score, which comes first: P or Q ? Reply with the label of the item you choose.
Q
